tested on: SF-268 CNS; test: NCI-60 one-dose screen, 48 h (100 = growth as untreated, 0 = no growth, -100 = all killed); conditions: 10 µM unless noted
This is part of a sample that, as a whole, favours compounds with a hit. Of some 83,000 tested, about 20% had one in any assay. Calls of active or inactive are those of the source. The calls were made as follows: active = growth percent below 10; inactive = the rest.
Here, each record is paired with measured growth data.

>  <compound>
C[C@H](Nc1ncnc2ccc(-c3cnc(Cl)c(NS(C)(=O)=O)c3)cc12)c1ccccc1

>  <growth>
-3.03% (active)

$$$$
>  <compound>
CCc1cc(O)ccc1Nc1cc(-c2ccc(-n3cccn3)cc2)[nH]n1

>  <growth>
66% (inactive)

$$$$
>  <compound>
CCOC(=O)c1cccc(NC2=C(Cl)C(=O)c3nc(C)ccc3C2=O)c1

>  <growth>
96.2% (inactive)

$$$$
>  <compound>
O=C1[C@H]2Cc3c([nH]c4ccccc34)[C@H](c3ccc(Cl)cc3)N2C(=O)CN1C1CCN(CC2CCCCC2)CC1

>  <growth>
60.2% (inactive)

$$$$
>  <compound>
C=C(C)[C@@H]1CC[C@]2(COP(=O)(OCC)OCC)CC[C@]3(C)[C@H](CC[C@@H]4[C@@]5(C)CC[C@H](OP(=O)(OCC)OCC)C(C)(C)[C@@H]5CC[C@]43C)[C@@H]12

>  <growth>
64.6% (inactive)

$$$$
>  <compound>
Cn1cc(-c2nn3cc(-c4ccncc4)nc3s2)c2cc(Br)ccc21

>  <growth>
68.8% (inactive)

$$$$
>  <compound>
NS(=O)(=O)c1ccc(Nc2nc(N/N=C/C=C/c3ccccc3)nc(Nc3ccccc3)n2)cc1

>  <growth>
46% (inactive)

$$$$
>  <compound>
Cc1ccc(NC(=O)Nc2nc3ccc([N+](=O)[O-])cc3s2)cc1

>  <growth>
10.8% (inactive)

$$$$
>  <compound>
C/C(CC1(O)C(=O)Nc2ccccc21)=N\O (centres undefined)

>  <growth>
98.3% (inactive)

$$$$

----------
test system: COLO 205 colon; experiment: NCI-60 one-dose screen, 48 h (100 = growth as untreated, 0 = no growth, -100 = all killed); settings: 10 µM unless noted
About 83,000 compounds went through this panel and 20% of them were active in at least one assay; those are over-represented in the sample as a whole.
Tick 1 if growth is 60% or greater. Tick 0 if growth is less than 60%.

>  <compound>
O=C(CCCCCCNC(=O)C(O)(O)C(F)(F)F)Nc1ncc(-c2ccc(Br)cc2)s1

>  <class name>
0

$$$$
>  <compound>
COC(=O)CCCNCCCn1ccc2cc(NCc3cccc(-c4ccccc4)c3C)ccc21

>  <class name>
1

$$$$
>  <compound>
COc1ccc(C(C)=C(c2ccc(OCCN3CCCCCC3)cc2)c2ccc(OCCN3CCCCCC3)cc2)cc1

>  <class name>
0

$$$$
>  <compound>
O=C(/C=C/c1cc(Cl)ccc1Cl)Nc1ncc(Cc2ccc(Cl)cc2)s1

>  <class name>
0

$$$$
>  <compound>
Cc1ccc([C@H]2c3[nH]c4ccccc4c3C[C@H]3C(=O)N(CCCCCCC(=O)NO)CC(=O)N23)s1

>  <class name>
1

$$$$
>  <compound>
COc1cccc2c1C=CC1(O2)Oc2cccc(OC)c2C=C1C (centres undefined)

>  <class name>
0

$$$$
>  <compound>
COc1cc(NC(=O)Nc2cccc(-c3cc(=O)c4c(OC)c(OC)c(OC)cc4o3)c2)cc(OC)c1OC

>  <class name>
0

$$$$
>  <compound>
COc1cc2oc(-c3cccc(NC(=O)[C@@H](N)C(C)C)c3)cc(=O)c2c(OC)c1OC

>  <class name>
1

$$$$

----------
tested on: OVCAR-8 ovarian; assay: NCI-60 one-dose screen, 48 h (100 = growth as untreated, 0 = no growth, -100 = all killed); conditions: 10 µM unless noted
This is part of a sample that, as a whole, favours compounds with a hit. Of some 83,000 tested, about 20% had one in any assay.
Threshold 90%. growth below it: 1 (yes). growth at it or above: 0 (no).

>  <compound>
O=C(/C=C/c1ccccc1Cl)Nc1ncc(Cc2cc(Cl)ccc2Cl)s1

>  <class name>
1 (yes)

$$$$
>  <compound>
COc1ccc(/C(=N\N=C(N)N)c2ccc(Cl)cc2)cc1OC

>  <class name>
1 (yes)

$$$$
>  <compound>
CC(C)NC(=O)c1cc(-c2ccc(NC(=O)Nc3ccc(F)cc3)cc2)nc2cccnc12

>  <class name>
0 (no)

$$$$
>  <compound>
Nc1cc(C(=O)N/N=C\c2ccc(OC(F)F)c(OC3CCCC3)c2)nn1CC(O)c1ccccc1 (stereo not given)

>  <class name>
0 (no)

$$$$

----------
tested on: HOP-92 NSCLC; experiment: NCI-60 one-dose screen, 48 h (100 = growth as untreated, 0 = no growth, -100 = all killed); conditions: 10 µM unless noted
The panel holds about 83,000 compounds, 20% with a hit somewhere; the sample as a whole holds those more often.
param class (str): category from growth; see ranges band 1 (below 50%), band 2 (50% to below 70%), band 3 (70% or more)

>  <chemical string>
CCN(CC)S(=O)(=O)c1ccc(-c2nc(C(Cl)Cl)nc3cc(C)nn23)cc1

>  <class name>
band 1

$$$$
>  <chemical string>
Oc1[nH]c2ccc(Cl)cc2c1N=Nc1nc(N=Nc2c(O)[nH]c3ccc(Cl)cc23)nc(N2CCOCC2)n1

>  <class name>
band 1

$$$$
>  <chemical string>
Cc1[nH]c(C(=O)Nc2ccc(C(=O)NCC3CCNCC3)cc2OC(C)C)c(Cl)c1Cl

>  <class name>
band 2

$$$$
>  <chemical string>
Cc1cccc(N2CCN(C3=C(Cl)C(=O)c4ncccc4C3=O)CC2)c1

>  <class name>
band 3

$$$$
>  <chemical string>
CS(=O)(=O)c1ccc(/C(=N/N=C(N)N)c2ccc(Cl)cc2)cc1

>  <class name>
band 2

$$$$
>  <chemical string>
C#CCOc1ccc(-c2csc(NC(=O)C=C)n2)cc1NS(=O)(=O)c1cccc2c(N(C)C)cccc12

>  <class name>
band 1

$$$$
>  <chemical string>
NS(=O)(=O)c1cccc(Nc2nc(SCC(=O)c3ccc(Cl)cc3)nc3c2CCC3)c1

>  <class name>
band 2

$$$$
>  <chemical string>
O=c1c2ccccc2cc2n1CCN=C2c1ccccc1

>  <class name>
band 3

$$$$
>  <chemical string>
COC(=O)c1ccc(NC2=C(Cl)C(=O)c3nc(C)ccc3C2=O)cc1

>  <class name>
band 3

$$$$

----------
tested on: SNB-19 CNS; assay: NCI-60 one-dose screen, 48 h; conditions: 10 µM unless noted
The panel holds about 83,000 compounds, 20% with a hit somewhere; the sample as a whole holds those more often. Activity calls are given as the source filed them. The calls were made as follows: active = growth percent below 10; inactive = the rest.
Outcomes: yes (active), no (inactive)

>  <compound>
Cn1c(SCC(=O)c2ccco2)nc2ccccc2c1=O

>  <study system>
SNB-19 CNS

>  <class name>
no

$$$$
>  <compound>
Cn1cc(-c2nn3cc(-c4ccncc4)nc3s2)c2cc(F)ccc21

>  <study system>
SNB-19 CNS

>  <class name>
no

$$$$
>  <compound>
O=C(Nc1ccc(N2CCOCC2)cc1)Nc1ccc2c(ccn2C(=O)c2cccc(F)c2)c1

>  <study system>
SNB-19 CNS

>  <class name>
no

$$$$
>  <compound>
CN1CCN(Cc2ccc(NC(=O)c3cncc(C#Cc4cnc5ccc(OCCCS(C)(=O)=O)nn45)c3)cc2C(F)(F)F)CC1

>  <study system>
SNB-19 CNS

>  <class name>
yes

$$$$
>  <compound>
CCS(=O)(=O)Nc1ccc(C(=O)CC2(O)C(=O)Nc3ccccc32)cc1 (stereo not given)

>  <study system>
SNB-19 CNS

>  <class name>
no

$$$$

----------
system: SK-OV-3 ovarian; test: NCI-60 one-dose screen, 48 h (100 = growth as untreated, 0 = no growth, -100 = all killed); details: 10 µM unless noted
About 83,000 compounds went through this panel and 20% of them were active in at least one assay; those are over-represented in the sample as a whole. Active and inactive are the calls of the source. How the source made its calls: active means growth percent below 10; inactive means the rest.

>  <compound>
CC(C)C(/C=C/c1[nH]ncc1-c1cc(Cl)ccc1O)N1CCOCC1 (centres undefined)

>  <growth>
92.8% (inactive)

$$$$
>  <compound>
O=C(/C=C/c1ccc(Cl)c(Cl)c1)Nc1ncc(Cc2ccc(Cl)c(Cl)c2)s1

>  <growth>
77.1% (inactive)

$$$$
>  <compound>
c1ccc(-c2cn3c(-c4c[nH]c5ccccc45)csc3n2)cc1

>  <growth>
87.3% (inactive)

$$$$
>  <compound>
CCc1cc(O)ccc1Nc1cc(-c2ccc(-n3cccn3)cc2)[nH]n1

>  <growth>
87.2% (inactive)

$$$$
>  <compound>
O=S(=O)(NCCCNc1nccc(-c2[nH]c(-c3ccccc3)nc2-c2ccc(F)c(O)c2)n1)c1cccc2ccccc12

>  <growth>
103% (inactive)

$$$$
>  <compound>
NS(=O)(=O)c1ccc(Nc2nc(N/N=C/c3ccc4c(c3)OCO4)nc(Nc3ccccc3)n2)cc1

>  <growth>
65.7% (inactive)

$$$$
>  <compound>
CN1CCN(Cc2ccc(NC(=O)c3cncc(C#Cc4cnc5ccc(OCC6COC6)nn45)c3)cc2C(F)(F)F)CC1

>  <growth>
-22.6% (active)

$$$$
>  <compound>
NS(=O)(=O)c1ccc(CCn2c(-c3ccc(C(=O)O)cc3)nc(-c3ccccc3)c2-c2ccccc2)cc1

>  <growth>
111% (inactive)

$$$$
>  <compound>
Cc1ccc(-c2cc3nc(C(Cl)Cl)nc(-c4ccc(S(=O)(=O)N(C)C)cc4)n3n2)cc1

>  <growth>
101% (inactive)

$$$$
